- measured.on: SMYD3 (Homo sapiens (Human))
- procedure.text: SMYD3 biochemical assay (SPA, 3H-SAM methylation of MEKK2 protein substrate)
- condition.context: average of n = 1 to n = 50; read-out: SMYD3 Biochem IC50
reported.metric: IC50 (nM)
Answer with a number only, understood to be in nM.

C[C@H]1C[C@@H](NC(=O)c2cc(C3CC3)on2)CCN1S(=O)(=O)N(C)CCN [compound 677]
111

What does the data say about its IC50? Entry: C[C@H]1CN(S(=O)(=O)CC2CCN(CCN3CCCCC3)CC2)CC[C@H]1NC(=O)c1cc(C2CC2)on1 [compound 693] 156
